Tgt: T1, human PD-L1 antigen (Beijing Sino Biological Inc, Catalog No. #10084-H08H-100) (human, UniProt Q9NZQ7 19-239)
T1 construct: Bought antigen; also called the antigen
Assay overview: BLI (ForteBIO Octet), antibody captured on sensor, human PD-L1 in solution
Measured property: koff

For orientation, consider the following solved cases.
[[record]]
binder = "Antibody I-HX-8 (antibody, human IgG4 S228P, kappa, V domains shown) VH: VQLVQSGAEVKKPGASVKVSCKASGYSFTTYWMHWVRQAPGQGLEWMGAIYPVHSETSYNQKFKGRVTITAVTSASTAYMELSSLRSEDTAVYYCTHWIEAFFHLMQHWGQGTLVTVSS VL: DIQMTQSPSSLSASVGDRVTITCRASQNIGQTLNWLQQKPGKAIKRLIYSTSSLDSGVPKRFSGSRSGSDYSLTISSLQPEDFATYYCLQYASSPFTFGQGTKLEIKR"
measurement = "1.81e-06 s⁻¹"

[[record]]
binder = "Antibody I-HX-7 (antibody, human IgG4 S228P, kappa, V domains shown) VH: VQLVQSGAEVKKPGASVKVSCKASGYSFTTYWMHWVRQAPGQGLEWMGAIYWAHSETSYNQKFKGRVTITAVTSASTAYMELSSLRSEDTAVYYCTRWGDGYYHAMDHWGQGTLVTVSS VL: DIQMTQSPSSLSASVGDRVTITCRASQEIGQTLNWLQQKPGKAIKRLIYATSSLDSGVPKRFSGSRSGSDYSLTISSLQPEDFATYYCLYYASTPFTFGQGTKLEIKR"
measurement = "4.27e-07 s⁻¹"


Note: attention shifts to another entry.
Query (binder): Antibody I-HX-2 (antibody, human IgG4 S228P, kappa, V domains shown, also called antibody I sample; candidate antibody I sample) VH: VQLVQSGAEVKKPGASVKVSCKASGYSFTSYWMHWVRQAPGQGLEWMGAIYPGNSDTSYNQKFKGRVTITAVTSASTAYMELSSLRSEDTAVYYCTRWGDGYYHAMDHWGQGTLVTVSS VL: DIQMTQSPSSLSASVGDRVTITCRASQDIGNTLNWLQQKPGKAIKRLIYATSSLDSGVPKRFSGSRSGSDYSLTISSLQPEDFATYYCLQYASSPFTFGQGTKLEIKR ; field requested: koff
2.7e-07 s⁻¹
